- Test system: RXF 393 renal
- MEASUREMENT_NOTES: NCI tumour cell line growth inhibition, 48 h
MEASURED_PROPERTY: GI50

Some compounds with known GI50 results, for comparison:
{"COMPOUND": "CN(C)c1ccc(/C=c2\\sc3nnc(Cc4ccccc4)n3c2=O)cc1", "GI50": "> 10 µM"}
{"COMPOUND": "COc1ccc(CNC(=O)c2c(C)n([O-])c3cc(F)c(F)cc3[n+]2=O)cc1", "GI50": "8.2 µM"}
{"COMPOUND": "COc1ccc(-c2c(C#N)cnc(N)c2-c2nc3cc(C)c(C)cc3[nH]2)cc1", "GI50": "5.68 µM"}
{"COMPOUND": "C[C@H](CCCOS(C)(=O)=O)[C@H]1CC[C@H]2[C@@H]3CC[C@@H]4C[C@H](OS(C)(=O)=O)CC[C@]4(C)[C@H]3CC[C@]12C", "GI50": "367 µM"}
{"COMPOUND": "Cn1c(=O)c2[nH]cnc2n(C)c1=O.[CH2-]C(Cc1cccc2cc(C(=O)O)c(=O)oc12)OC.[Hg+2].[OH-] (centres undefined)", "GI50": "19.3 µM"}

Give its GI50 value. Item: CC(=O)Nc1nc(C)c(-c2cc3c(c(S(C)(=O)=O)c2)C(=O)N([C@@H](C)C2CC2)C3)s1 14.2 µM

Query COc1ccc2c(c1)O/C(=C\c1ccc([N+](=O)[O-])s1)C2=O next 1.85 µM

Now give it for CC1CC2(C)CC(=O)C1C1C(=O)N(CCN3CCOCC3)C(=O)C12 (centres undefined) too. > 100 µM

Try the compound COc1ccc(-c2cc3c(N)ncnc3o2)cc1 > 25 µM

* * *

- Tested on: SK-MEL-5 melanoma
- MEASUREMENT_NOTES: NCI tumour cell line growth inhibition, 48 h
MEASURED_PROPERTY: TGI (µM)
Kindly provide the numeric value in µM only, without the unit symbol.

Quick one: TGI of O=S1(=O)C=C(c2ccccc2)C(c2ccccc2)=C1 ? 2.9

Input CCCNC(=O)Nc1ccc2c(c1)Cc1cc(N(CCCl)CCCl)ccc1-2 33

Another compound to look at: CC(=O)Oc1ccc2c3c1[C@@H]1O[C@@H]1c1cccc(c1-3)[C@@H]1O[C@H]21 3.56

Another compound: CCCCCCCCCCCCCCCC(N)c1ccccc1 (stereo not drawn) 3.23

* * *

- System: HS 578T breast
- MEASUREMENT_NOTES: NCI tumour cell line growth inhibition, 48 h
Where a SMILES comes first, the peptide text is derived from it. [ ]: non-standard residue; d: D form. The star is where a group is joined. ξ: configuration not given here. dIva = CC[C@@](C)(N)C(=O)O; Aib = CC(C)(N)C(=O)O; ξP = O=C(O)C1CCCN1; βAla = NCCC(=O)O; X5 = OCN*
Readings of TGI for the listed molecules
API: value field is a number in µM; no unit string.

Known TGI results, listed for orientation:
{"MOLECULE": "CC[C@@](C)(NC(=O)[C@H](C)NC(=O)CCNC(=O)C(C)(C)NC(=O)[C@H](C)NC(=O)[C@@H]1CCCN1C(=O)[C@@](C)(CC)NC(=O)[C@H](Cc1ccccc1)NC(=O)C1CCCN1C(=O)C(C)(C)NC(=O)C1CCCN1C(=O)C(C)(C)NC(C)=O)C(=O)NCCC(=O)N[C@@H](CC(C)C)C(=O)NC(C)(C)C(=O)NCCC(=O)N[C@@H](CC(C)C)C(=O)NC(C)(C)C(=O)NC(C)(C)C(=O)N[C@@H](CC(C)C)C(=O)NCCC(=O)NCO (stereo partly specified) (Ac-[Aib][ξP][Aib][ξP]F[dIva]PA[Aib][βAla]A[dIva][βAla]L[Aib][βAla]L[Aib][Aib]L[βAla]-X5)", "TARGET_UNDER_TEST": "HS 578T breast", "TGI / µM": 0.642}
{"MOLECULE": "NC(N)=N/N=C/c1c(-c2ccc(Cl)cc2)nc2n1CCS2", "TARGET_UNDER_TEST": "HS 578T breast", "TGI / µM": 58.8}

Now look at this entry.
Entry Nc1cc(N)c2nc(-c3ccccc3)c(Oc3ccc(Cl)c(Cl)c3)nc2c1 has what TGI? 33.7
